Hello, the source for this data is patent US7163946B2, in case you need it.

biological target: UniProtKB P06401; test: hPR cotransfection assay in CV-1 cells, agonist mode; format: cell-based; conditions: Tables 3 and 4, values without footnote; read-out: hPR agonist potencies (EC50 in nM) in the cotransfection assay
Sequence (P06401 whole entry): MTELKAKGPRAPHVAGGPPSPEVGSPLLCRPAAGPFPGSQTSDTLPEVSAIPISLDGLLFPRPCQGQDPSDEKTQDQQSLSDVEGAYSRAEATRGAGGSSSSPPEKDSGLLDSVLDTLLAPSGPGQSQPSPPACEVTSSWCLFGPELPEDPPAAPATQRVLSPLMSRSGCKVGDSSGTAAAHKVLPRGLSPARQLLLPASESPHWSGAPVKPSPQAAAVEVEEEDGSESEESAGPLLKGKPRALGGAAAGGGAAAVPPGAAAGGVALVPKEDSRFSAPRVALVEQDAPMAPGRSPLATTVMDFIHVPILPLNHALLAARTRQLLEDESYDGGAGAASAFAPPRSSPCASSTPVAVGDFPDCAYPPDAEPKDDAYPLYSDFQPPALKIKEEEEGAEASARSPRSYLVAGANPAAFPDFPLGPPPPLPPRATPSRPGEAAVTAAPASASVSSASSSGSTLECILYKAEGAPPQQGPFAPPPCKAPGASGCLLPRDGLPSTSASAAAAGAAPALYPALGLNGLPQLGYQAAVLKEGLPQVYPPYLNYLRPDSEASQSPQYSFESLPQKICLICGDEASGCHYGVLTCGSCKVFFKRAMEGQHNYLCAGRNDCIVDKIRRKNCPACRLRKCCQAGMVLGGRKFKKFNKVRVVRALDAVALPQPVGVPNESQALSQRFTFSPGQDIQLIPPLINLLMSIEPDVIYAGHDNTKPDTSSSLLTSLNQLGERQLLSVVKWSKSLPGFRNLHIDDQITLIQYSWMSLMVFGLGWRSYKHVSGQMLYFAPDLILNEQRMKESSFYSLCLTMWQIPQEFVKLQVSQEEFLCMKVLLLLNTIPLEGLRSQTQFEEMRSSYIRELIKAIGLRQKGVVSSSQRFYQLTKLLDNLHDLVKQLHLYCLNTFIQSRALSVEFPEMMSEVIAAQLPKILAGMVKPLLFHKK
A collection of compounds and their measured EC50

# Compound, Experimental System, EC50 (nM)
data = [
    ("CC1=CC(C)(C)Nc2ccc3c(c21)C(c1cccc(C)c1)Oc1c(F)cc(F)cc1-3 (racemic) [Compound 34]", "UniProtKB P06401", 1.2),
    ("COc1ccc2c(c1)O/C(=C\\c1ccncc1C)c1c-2ccc2c1C(C)=CC(C)(C)N2 [Formula II X=8-OMe 3-Me-4-pyridinyl, reference compound]", "UniProtKB P06401", 24),
    ("COc1ccc(F)cc1/C=C1\\Oc2ccc(F)cc2-c2ccc3c(c21)C(C)=CC(C)(C)N3 [Formula II X=9-F 2-MeO-5-F-Ph, reference compound]", "UniProtKB P06401", 0.9),
    ("CC1=CC(C)(C)Nc2ccc3c(c21)/C(=C/c1ccccc1)Oc1ccc(Cl)cc1-3 [Formula II X=9-Cl Phenyl, reference compound]", "UniProtKB P06401", 6.24),
]
